molecular target: T1, StrepII-tagged human ROR1 extracellular domain (human, UniProt Q01973 30-406); assay: SPR (Biacore T200); mAb captured by goat anti-human Fcγ IgG on CM5; ROR1-strep as analyte (Example 8)
T1 construct: extracellular domain; also called ROR1-strep; strep-tagged human ROR1
T1 sequence (Q01973 other isoform, or with tags, fused parts or gaps): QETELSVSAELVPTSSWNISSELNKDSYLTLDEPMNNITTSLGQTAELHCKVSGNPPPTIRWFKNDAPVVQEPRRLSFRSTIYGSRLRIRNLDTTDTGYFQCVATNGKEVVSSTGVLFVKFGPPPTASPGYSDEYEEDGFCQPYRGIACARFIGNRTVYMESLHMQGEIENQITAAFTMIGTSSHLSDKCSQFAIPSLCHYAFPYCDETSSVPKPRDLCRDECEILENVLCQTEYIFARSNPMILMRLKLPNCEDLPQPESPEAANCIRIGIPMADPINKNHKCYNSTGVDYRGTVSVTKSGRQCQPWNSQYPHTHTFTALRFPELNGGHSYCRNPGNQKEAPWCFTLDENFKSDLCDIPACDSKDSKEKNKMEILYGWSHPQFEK

binder: HuXBR1-402(19) (mAb295) (antibody, human IgG1, V domains shown, Humanized IgG (human IgG1 constant regions, lambda)) VH: QVQLQESGPGLVKPSETLSLTCTVSGFDISSYYMSWVRQPPGNGLEWIGAIGISGNAYYASWAKSRVTISRDTSKNQFSLKLSSVTAADTAVYYCARDHPTYGMDLWGPGTLVTVSS VL: SYELTQPPSVSVAPGKTARITCEGNNIGSKAVHWYQQKPGQAPVLVIYDDDERPSGIPERFSGSNSGNTATLTISRVEAGDEADYYCQVWDSSAYVFGGGTKLTVLG
endpoint unit: s⁻¹
koff: 0.00332
//
binder: HuXBR1-402(3) (mAb288) (antibody, human IgG1, V domains shown, Humanized IgG (human IgG1 constant regions, lambda)) VH: QVQLRESGPGLVKPSETLSLTCTVSGFDISSYYMSWVRQPPGKGLEWIGAIGISGNAYYASWAKSRVTISRDTSKNQFSLKLSSVTAADTAVYYCARDHPTYGMDLWGPGTLVTVSS VL: SYELTQPLSVSVALGQTARITCEGNNIGSKAVHWYQQKPGQAPVLVIYDDDERPSGIPERFSGSNSGNTATLTISRAQAGDEADYYCQVWDSSAYVFGGGTKLTVLG
endpoint unit: s⁻¹
koff: 0.00375
//
binder: HuXBR1-402(15) (mAb290) (antibody, human IgG1, V domains shown, Humanized IgG (human IgG1 constant regions, lambda)) VH: QVQLQESGPGLVKPSETLSLTCTVSGFDISSYYMSWVRQPPGKGLEWIGAIGISGNAYYASWAKSRVTISRDTSKNQFSLKLSSVTAADTAVYYCARDHPTYGMDLWGPGTLVTVSS VL: SYELTQPPSVSVAPGKTARITCEGNNIGSKAVHWYQQKPGQAPVLVIYDDDERPSGIPERFSGSNSGNTATLTISRVEAGDEADYYCQVWDSSAYVFGGGTKLTVLG
endpoint unit: s⁻¹
koff: 0.00394
//
binder: HuXBR1-402(17) (mAb291) (antibody, human IgG1, V domains shown, Humanized IgG (human IgG1 constant regions, lambda)) VH: QVQLRESGPGLVKPSETLSLTCTVSGFDISSYYMSWVRQPPGKGLEWIGAIGISGNAYYASWAKSRVTISRDTSKNQFSLKLSSVTAADTAVYYCARDHPTYGMDLWGPGTLVTVSS VL: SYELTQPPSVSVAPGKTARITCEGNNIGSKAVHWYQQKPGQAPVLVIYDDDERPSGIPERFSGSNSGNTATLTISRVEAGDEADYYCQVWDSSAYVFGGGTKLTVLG
endpoint unit: s⁻¹
koff: 0.00322
//
binder: HuXBR1-402(26) (mAb296) (antibody, human IgG1, V domains shown, Humanized IgG (human IgG1 constant regions, lambda)) VH: QVQLQESGPGLVKPSETLSLTCTVSGFDISSYYMSWVRQPPGNGLEWIGAIGISGNAYYASWAKSRVTISRDTSKNQFSLKLSSVTAADTAVYYCARDHPTYGMDLWGPGTLVTVSS VL: SYELTQPLSVSVALGQTARITCEGNNIGSKAVHWYQQKPGLAPVLVIYDDDERPSGIPERFSGSNSGNTATLTISRAQAGDEADYYCQVWDSSAYVFGGGTQLTVLG
endpoint unit: s⁻¹
koff: 0.00328
//
binder: HuXBR1-402(8) (mAb289) (antibody, human IgG1, V domains shown, Humanized IgG (human IgG1 constant regions, lambda)) VH: QVQLQESGPGLVKPSETLSLTCTVSGFDISSYYMSWVRQPPGKGLEWIGAIGISGNAYYASWAKSRVTISRDTSKNQFSLKLSSVTAADTAVYYCARDHPTYGMDLWGPGTLVTVSS VL: SYELTQPPSVSVSPGQTAIITCEGNNIGSKAVHWYQQKPGLSPVLVIYDDDERPSGIPERFSGSNSGNTATLTVSGTQDMDEADYYCQVWDSSAYVFGGGTKLTVLG
endpoint unit: s⁻¹
koff: 0.00276
